Test: Aqueous kinetic solubility of the compound in PBS buffer at pH 7.4
Format: physicochemical
Settings: read-out: Kinetic_solubility
Parameter threshold = 100 µM. Response is Condition met when solubility kinetic meets or exceeds it, else Condition not met.

Known results for compounds:
Compound: N#C[C@H]1CCC[C@H]1Nc1ncnc2c(=O)[nH]ccc12 (racemic)
Category: Condition met
--
Compound: O=c1[nH]ccc2c(NC3CCCCC3)ncnc12
Category: Condition met
--
Compound: N#C[C@H]1CCC[C@H]1Nc1nc(-c2ccccc2)nc2c(=O)[nH]ccc12 (racemic)
Category: Condition not met

Is it the case that N#C[C@H]1CCC[C@H]1Nc1nc(-c2cn[nH]c2)nc2c(=O)[nH]ccc12 (racemic) has solubility kinetic reaching or exceeding 100 µM?
Condition not met

Hi team, for N#CC1CCCC1Nc1ncnc2c(=O)[nH]ccc12 (single isomer, unassigned; enantiomer 1) , is the recorded solubility kinetic at or above 100 µM?
Condition met

Please indicate if the recorded solubility kinetic for O=c1[nH]ccc2c(NC3CCCC3)ncnc12 meets or exceeds 100 µM.
Condition met

Decide: is the reported value of solubility kinetic for CN(CCO)c1nc(N[C@@H]2CCC[C@@H]2C#N)c2cc[nH]c(=O)c2n1 (racemic) equal to or greater than 100 µM?
Condition not met

Does the compound CNc1nc(N[C@@H]2CCC[C@@H]2C#N)c2cc[nH]c(=O)c2n1 (racemic) have recorded solubility kinetic that is 100 µM or more?
Condition not met

API: above_or_equal(metric=solubility kinetic, cutoff=100 µM) for item N#C[C@H]1CCC[C@H]1Nc1nc(N2CCOCC2)nc2c(=O)[nH]ccc12 (racemic)
Condition not met

Test whether the compound CCc1nc(N[C@@H]2CCC[C@@H]2C#N)c2cc[nH]c(=O)c2n1 (racemic) records solubility kinetic of 100 µM or higher.
Condition met

Check if solubility kinetic >= 100 µM (inclusive). Item: N#C[C@H]1CCC[C@H]1Nc1nc(N2CCCCC2)nc2c(=O)[nH]ccc12 (racemic)
Condition not met
